FYI, the data here is from paper PMC4859520.

Items are presented alongside their recorded pKi.
- target-entity: GmolGOBP2 (Grapholita molesta, UniProt H9XTU6)
- Sequence (H9XTU6 entry or part of it): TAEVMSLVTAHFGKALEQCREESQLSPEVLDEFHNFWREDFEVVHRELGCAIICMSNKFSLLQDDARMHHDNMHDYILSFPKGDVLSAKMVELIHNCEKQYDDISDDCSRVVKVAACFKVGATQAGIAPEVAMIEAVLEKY
- experiment-description: Fluorescence competitive binding assay with probe 1-NPN, rGmolGOBP2 wild-type
- assay-conditions: protein and 1-NPN 2 μM, pH 7.4; calculated from IC50; read-out: GmolGOBP2 Ki
# pKi is unitless: minus log10 of the molar concentration; print number only

| compound | pKi |
| --- | --- |
| CCC/C=C\CCCCCCCOC(C)=O [Z8-12:AC, (Z)-8-dodecenyl acetate] | 4.84 |
| CCC/C=C\CCCCCCCO [Z8-12:OH, (Z)-8-dodecenyl alcohol] | 4.89 |
| CCCCCCCCCCCCO | 5.91 |

*Q* Fill in reported pKi for this entry: C=C/C(C)=C/CCC(=C)C
*A* 4.36

*Q* Fill in reported pKi for this entry: CCCCCC(=O)OCCCC [Butyl hexanoate]
*A* 4.37

*Q* Fill in reported pKi for this entry: CCCCCCCCCC=O
*A* 4.37

----------
- target-entity: GmolGOBP2 V111A (Grapholita molesta, UniProt H9XTU6, V131A)
- Sequence (H9XTU6 entry or part of it V131A): as the sequence (H9XTU6 entry or part of it) above, with V111A counted along it
- experiment-description: Fluorescence competitive binding assay, GmolGOBP2 mutant V111A
- assay-conditions: V111A versus wild-type rGmolGOBP2
readout-type: affinity of V111A mutant versus wild-type (in words)

| line-notation | result |
| --- | --- |
| CCCCCCCCCCO | no differences |
| CCCCCCCCCCCCCCCCO | no differences |
| CCCCCCCCCCCCCCO | no differences |

----------
Items are presented alongside their recorded pIC50.
- target-entity: GmolGOBP2 (Grapholita molesta)
- experiment-description: Fluorescence competitive binding assay with probe 1-NPN, rGmolGOBP2 wild-type
- assay-conditions: protein and 1-NPN 2 μM, pH 7.4; displacing half of initial fluorescence; read-out: GmolGOBP2 IC50
# pIC50 is unitless: minus log10 of the molar concentration; print number only

| compound | pIC50 |
| --- | --- |
| CC/C=C\CC1C(=O)CCC1CC(=O)OC (centres unmarked) [Methyl jasmonate] | 4.13 |

*Q* Specify pIC50 for CCCCCCC(=O)OCC [Ethyl heptanoate] , system GmolGOBP2 (Grapholita molesta).
*A* 4.05

----------
- target-entity: GmolGOBP1 (Grapholita molesta)
- Sequence (H9XTU5 entry or part of it): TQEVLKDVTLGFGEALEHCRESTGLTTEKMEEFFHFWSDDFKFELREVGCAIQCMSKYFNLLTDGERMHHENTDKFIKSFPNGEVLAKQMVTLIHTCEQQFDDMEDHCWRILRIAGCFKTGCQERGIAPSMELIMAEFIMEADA
- experiment-description: Fluorescence competitive binding assay with probe 1-NPN, rGmolGOBP1
- Description: Fluorescence binding assays were performed on a Hitachi (Tokyo, Japan) F-4500 fluorescence spectrophotometer with a 1 cm light path fluorimeter quartz cuvette. Both of the slit widths for excitation and emission were 10 nm. […] The probes were excited at 337 nm and emission spectra were recorded between 370 and 550 nm. […] Dissociation constants of the complex GmolGOBPs/1-NPN (K1-NPN) were calculated by a nonlinear regression binding curve, using Prism 5.0 (GraphPad Software Inc.).
Items are presented alongside their recorded IC50.
Could you give me the number in µM? Just the number is fine.

| compound | IC50 [µM] |
| --- | --- |
| CC/C=C\CCO [Cis-3-Hexen-1-ol] | 18.3 |

*Q* Fill in reported IC50 for this entry: CC1=CCC2CC1C2(C)C (stereo not drawn) [α-Pinene]
*A* 16.1

*Q* Fill in reported IC50 for this entry: N#Cc1ccccc1 [Benzonitrile]
*A* 40.4

*Q* Fill in reported IC50 for this entry: CCC/C=C/C=O [(E)-2-Hexenal]
*A* 23

*Q* Fill in reported IC50 for this entry: CCCCOC(C)=O [Butyl acetate]
*A* 39.9

*Q* Fill in reported IC50 for this entry: O=Cc1ccccc1 [Benzaldehyde]
*A* 35

*Q* Fill in reported IC50 for this entry: CCCCCC=O [Hexanal]
*A* 33.6

*Q* Fill in reported IC50 for this entry: COC(=O)c1ccccc1O [Methyl salicylate]
*A* 49.8

----------
- target-entity: GmolGOBP2 V111A (Grapholita molesta, UniProt H9XTU6, V131A)
- experiment-description: Fluorescence competitive binding assay, GmolGOBP2 mutant V111A
- assay-conditions: mutant V111A; protein and 1-NPN 2 μM, ligand 0 to 14 μM; read-out: Ki V111A
readout-type: Ki (nM)
Could you give me the number in nM? Just the number is fine.

*Q* Fill in reported Ki for this entry: CCCCCCCCCCCCCCO
*A* 300

----------
- target-entity: GmolGOBP2 V111A (Grapholita molesta, UniProt H9XTU6, V131A)
- experiment-description: Fluorescence competitive binding assay, GmolGOBP2 mutant V111A
readout-type: Ki (nM)
Could you give me the number in nM? Just the number is fine.

| line-notation | quantitative-result |
| --- | --- |
| CCCCCCCCCCO | 11300 |
| CCCCCCCCCCCCCCCCO | 1360 |

Let's switch to this compound now.
*Q* Fill in reported Ki for this entry: CCCCCCCCCCCCO
*A* 1350

----------
- target-entity: GmolGOBP2 (Grapholita molesta, UniProt H9XTU6)
- experiment-description: Fluorescence competitive binding assay with probe 1-NPN, rGmolGOBP2 wild-type
- assay-conditions: rGmolGOBP2 wild-type; protein and 1-NPN 2 μM, ligand 0 to 14 μM; read-out: Ki Wild-Type
readout-type: pKi
# pKi is unitless: minus log10 of the molar concentration; print number only

*Q* Fill in reported pKi for this entry: CCCCCCCCCCCCCCCCO
*A* 5.87

----------
Items are presented alongside their recorded pKi.
- target-entity: GmolGOBP2 (Grapholita molesta, UniProt H9XTU6)
- experiment-description: Fluorescence competitive binding assay with probe 1-NPN, rGmolGOBP2 wild-type
- assay-conditions: protein and 1-NPN 2 μM, pH 7.4; calculated from IC50; read-out: GmolGOBP2 Ki
# pKi is unitless: minus log10 of the molar concentration; print number only

| compound | readout-type | quantitative-result |
| --- | --- | --- |
| CCCCCCCCC=O | pKi | 4.12 |

*Q* Fill in reported pKi for this entry: CC/C=C\CC1C(=O)CCC1CC(=O)OC (centres unmarked) [Methyl jasmonate]
*A* 4.22

*Q* Fill in reported pKi for this entry: CCCCCCOC(C)=O [Hexyl acetate]
*A* 4.09

*Q* Fill in reported pKi for this entry: CCCCCCCC=O
*A* 4.18

*Q* Fill in reported pKi for this entry: CCCCCCC(=O)OCC [Ethyl heptanoate]
*A* 4.14

----------
- target-entity: rGmolGOBP2 (Grapholita molesta, UniProt H9XTU6)
readout-type: pKd
# pKd is unitless: minus log10 of the molar concentration; print number only

*Q* Fill in reported pKd for this entry: c1ccc(Nc2cccc3ccccc23)cc1
*A* 5.33

----------
- target-entity: GmolGOBP2 (Grapholita molesta)
- experiment-description: Fluorescence competitive binding assay with probe 1-NPN, rGmolGOBP2 wild-type
readout-type: pKi
# pKi is unitless: minus log10 of the molar concentration; print number only

Examples with their reported pKi follow.
| molecule | target-entity | pKi |
| --- | --- | --- |
| CCCCCCCCCCCCCCO [tetradecanol] | GmolGOBP2 (Grapholita molesta) | 6.44 |
| CC1=CCC2CC1C2(C)C (stereo not drawn) [α-Pinene] | GmolGOBP2 (Grapholita molesta) | 4.37 |
| CCCCCCCCCCO [decanol] | GmolGOBP2 (Grapholita molesta) | 4.82 |
| O=Cc1ccccc1 [Benzaldehyde] | GmolGOBP2 (Grapholita molesta) | 4.12 |

Let's switch to this molecule now.
*Q* Fill in reported pKi for this entry: COC(=O)c1ccccc1O [Methyl salicylate]
*A* 4.11

----------
- target-entity: GmolGOBP2 (Grapholita molesta)
- experiment-description: Fluorescence competitive binding assay with probe 1-NPN, rGmolGOBP2 wild-type
- assay-conditions: protein and 1-NPN 2 μM, pH 7.4; displacing half of initial fluorescence; read-out: GmolGOBP2 IC50
readout-type: pIC50
# pIC50 is unitless: minus log10 of the molar concentration; print number only

| molecule | quantitative-result |
| --- | --- |
| CCCCCC(=O)OCCCC [Butyl hexanoate] | 4.28 |
| CCC/C=C\CCCCCCCOC(C)=O [Z8-12:AC, (Z)-8-dodecenyl acetate] | 4.76 |
| CCCCCCCCCCCCO [12:OH, dodecanol] | 5.75 |
| CCCCCCCCC=O [Nonanal] | 4.04 |

*Q* Specify pIC50 for CCC/C=C\CCCCCCCO [Z8-12:OH, (Z)-8-dodecenyl alcohol] , system GmolGOBP2 (Grapholita molesta).
*A* 4.81

*Q* Specify pIC50 for CCCCCCCCCC=O [Decanal] , system GmolGOBP2 (Grapholita molesta).
*A* 4.29

----------
Items are presented alongside their recorded pIC50.
- target-entity: GmolGOBP2 (Grapholita molesta)
- experiment-description: Fluorescence competitive binding assay with probe 1-NPN, rGmolGOBP2 wild-type
# pIC50 is unitless: minus log10 of the molar concentration; print number only

| molecule | quantitative-result |
| --- | --- |
| CC1=CCC2CC1C2(C)C (stereo not drawn) [α-Pinene] | 4.29 |
| O=Cc1ccccc1 [Benzaldehyde] | 4.04 |

*Q* Specify pIC50 for COC(=O)c1ccccc1O [Methyl salicylate] , system GmolGOBP2 (Grapholita molesta).
*A* 4.03
